- ASSAY PROTOCOL: NCI Yeast Anticancer Drug Screen. Data for the mgt1 strain (AID 153)
- STATED CONDITIONS: S. cerevisiae mgt1 mutant growth inhibition; at 11.0 µM; stronger effect = higher value
The panel holds about 79,000 compounds, 15% with a hit somewhere; the sample as a whole holds those more often.
Returns one of met or not met; met when growth inhibition is >= 10%.

[
  {
    "COMPOUND": "O=C1c2ccccc2CCC1(Br)Br",
    "QUALITATIVE LABEL": "met"
  },
  {
    "COMPOUND": "[Pt].c1ccc(P(CCP(c2ccccc2)c2ccccc2)CCP(c2ccccc2)c2ccccc2)cc1",
    "QUALITATIVE LABEL": "not met"
  },
  {
    "COMPOUND": "CCCCCC(=O)c1ccc(O)cc1O",
    "QUALITATIVE LABEL": "met"
  },
  {
    "COMPOUND": "COc1cc2c(cc1C[N+](C)(C)CSc1ccccc1)-c1ccccc1CC2",
    "QUALITATIVE LABEL": "met"
  },
  {
    "COMPOUND": "COc1cccc(C(c2cc3c(cc2O)OCO3)N2CCOCC2)c1OC (stereo unspecified)",
    "QUALITATIVE LABEL": "not met"
  },
  {
    "COMPOUND": "CN(C)CCN1C(=O)c2cccc3cc([N+](=O)[O-])cc(c23)C1=O",
    "QUALITATIVE LABEL": "not met"
  },
  {
    "COMPOUND": "O=C1C(Cl)=C(Cl)C(Cl)(Cl)C(Cl)C1(Cl)Cl (stereo unspecified)",
    "QUALITATIVE LABEL": "met"
  },
  {
    "COMPOUND": "Clc1c(Cl)c(Cl)c2c(nnn2C2CCCO2)c1Cl (stereo unspecified)",
    "QUALITATIVE LABEL": "not met"
  },
  {
    "COMPOUND": "COC(=O)/C=C1/OC(c2ccc(Br)cc2)=C(Br)C1=O",
    "QUALITATIVE LABEL": "not met"
  },
  {
    "COMPOUND": "NC(N)=NCCCS(=O)(=O)Nc1ccc(Nc2c3ccccc3nc3cc([N+](=O)[O-])ccc23)cc1",
    "QUALITATIVE LABEL": "not met"
  },
  {
    "COMPOUND": "NC(N)=N/N=C/c1cc(Cl)cc(Cl)c1O",
    "QUALITATIVE LABEL": "met"
  }
]

====

// reported growth inhibition for each item listed
- ASSAY PROTOCOL: NCI Yeast Anticancer Drug Screen. Data for the mlh1 strain (AID 171);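 note: 0% = growth of vehicle-treated control cultures of the same strain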
- STATED CONDITIONS: S. cerevisiae mlh1 strain growth inhibition; at 33.0 µM; stronger effect = higher value
Compounds without any hit were thinned out: in the full panel of roughly 79,000, 15% have a hit. Residues, ends and D or L forms follow the SMILES beside them. *: point of attachment. CH2Cl = ClC*

[
  {
    "COMPOUND": "O=C1c2ccccc2CCC1(Br)Br",
    "growth inhibition [%]": 99
  },
  {
    "COMPOUND": "Clc1cc(Cc2ccc(N=C/C=C/c3ccccc3)c(Cl)c2)ccc1N=C/C=C\\c1ccccc1",
    "growth inhibition [%]": -10
  },
  {
    "COMPOUND": "Cc1ccc(N=Nc2ccc(O)c(C)c2)cc1",
    "growth inhibition [%]": 97
  },
  {
    "COMPOUND": "CC(=O)NC(CC(C)C)C(=O)NC(Cc1ccccc1)C(=O)CCl (stereo not drawn) (Ac-Leu-Phe-CH2Cl; configuration not given here)",
    "growth inhibition [%]": 5
  },
  {
    "COMPOUND": "Cc1c2cc[n+](CCN3CCCCC3)cc2c(C)c2c1[nH]c1ccc(O)cc12",
    "growth inhibition [%]": 8
  }
]
